- TARGET OF ASSAY: T1, recombinant human CLL-1 extracellular domain (ECD, amino acids 65-265) fused to an N-terminal Flag (human, UniProt Q5QGZ9 65-265)
- T1 construct: The construct and the K244Q SNP are stated for the immunogen; they are not written as a piece; also called huCLL-1-Flag; huCLL-1
- T1 chain: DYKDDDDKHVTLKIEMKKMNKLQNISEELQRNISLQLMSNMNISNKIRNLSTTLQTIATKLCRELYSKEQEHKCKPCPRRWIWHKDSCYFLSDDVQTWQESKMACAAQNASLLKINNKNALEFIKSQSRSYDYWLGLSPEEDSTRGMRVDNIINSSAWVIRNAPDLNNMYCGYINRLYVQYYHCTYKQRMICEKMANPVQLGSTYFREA
- ASSAY REMARKS: SPR (Biacore), chimeric IgG captured by anti-human IgG, CLL-1 as analyte
Each entry below carries its reported koff.
Number in s⁻¹, nothing else.

>>> result("ch28H12 (antibody, V domains shown, chimeric version of m28H12, human IgG; also called chimeric 28H12) VH: QVQLQQSGAELVKPGASVKLSCTASGFNIKDTYMHWVKQRPEQGLEWIGRIDPANGDTDYDPKFQGKATVTADTSSNTAYLQLSSLTSEDTAVYYCTISGPPYYVMDYWGQGTSVTVSS VL: DIQMTQSPASLAVSLGQRATISCRASQSVSSSSYSYMHWYQQKPGQPPKLLIKYASNLESGVPARFSGRGSGTDFTLNIHPVEEEDTATYYCQHSWEIPYTFGGGTRLEIK")
0.0095
>>> result("ch21C9 (antibody, V domains shown, chimeric version of m21C9, human IgG; also called chimeric 21C9; Chimeric 21C9) VH: EVQLQQSGPELVKPGASVKMSCKASGYTFTDYYLDWVKQSHGESFEWIGRVNPYNGGTIYNQKFKGKATLTVDKSSSTAYMDLNSLTSEDSAVYYCARDHYRYDPLLDYWGQGTTLTVSS VL: DIQMTQSHKFMSTSVGDRVSITCKASQDVSTAVAWFQQKPGQSPKLLIYSPSYRYTGVPDRFTGSGSGTDFTFTISSVQAEDLAVYYCQQLYSTPYTFGGGTKLEIK")
0.0024
>>> result("ch6E7 (antibody, V domains shown, chimeric version of m6E7, human IgG; also called chimeric 6E7; Chimeric 6E7) VH: QVQLQQSGPELVKPGASVKISCKASGYSFTDYYMHWVKQSHIKSLEWIGRINPYNGAAFYSQNFKDKASLTVDKSSSTAYMELHSLTSEDSAVYYCAIERGADLEGYAMDYWGQGTSVTVSS VL: DIVLTQSPSSLIVSLGQRATISCRASQSVSTSSYNYMHWYQQKPGQPPKLLLKYASNLESGVPARFSGSGSGTDFTLNIHPVEEEDTATYYCQHSWEIPLTFGAGTKLEIK")
0.00044

As a next step, examine the binder that follows.
Name the recorded koff of the binder listed here: ch20B1 (antibody, V domains shown, chimeric version of m20B1, human IgG; also called chimeric 20B1; 2061 [sic]) VH: EVQLQQSGPELVKPGALVKISCKASGYTFTSYDINWLKQRPGQGLEWIGWIYPGDGTTEYNERFKGKATLTADKSSSTAYLQLSSLTSENSAVYFCARSYDYDYAMDYWGQGTSVTVSS VL: DIVLTQSPAIMSASPGEKVTMTCSASSSISYMYWYQQKPGTSPKRWIYDTSKLASGVPARFSGSGSGTSYSLTISSMEAEDAATYYCHQRSSWTFGGGTKLEIK 0.001
